What inhibition was measured for each of the following?
biological target: Interleukin-5 (Mus musculus); test: Inhibition of IL-5 in mouse Y16 cells at 30 uM after 48 hrs by WST1 assay; format: cell-based
Please reply with the bare figure in % and do not write the unit itself.

Data request: I would be grateful if you could share the reported inhibition for `CC(C)N(CCO)Cc1coc2cccc(OCC3CCCCC3)c2c1=O` .
Data returned: 90.2

Data request: Please look up its inhibition: `O=c1c(CN(CCO)Cc2ccncc2)coc2cccc(OCC3CCCCC3)c12`
Data returned: 94

Data request: Recorded inhibition of `O=c1c(CN(CCO)Cc2ccc(O)cc2)coc2cccc(OCC3CCCCC3)c12` , please.
Data returned: 93.7

Data request: Bench note: what inhibition did `O=c1c(CN(CCO)Cc2ccc(Cl)cc2)coc2cccc(OCC3CCCCC3)c12` show?
Data returned: 93.4

Data request: Which inhibition is reported for this compound? `O=c1c(CN(CCO)C2CCCCC2)coc2cccc(OCC3CCCCC3)c12`
Data returned: 94.5

Data request: Look up inhibition: `O=c1c(CN(CCO)Cc2ccccc2)coc2cccc(OCC3CCCCC3)c12`
Data returned: 94.8

Data request: Tell me the measured inhibition of `CCN(CCO)Cc1coc2cccc(OCC3CCCCC3)c2c1=O` , please.
Data returned: 79.2

Data request: May I ask what inhibition has been recorded for `O=c1c(CN(CCO)CC2CCCCC2)coc2cccc(OCC3CCCCC3)c12` ?
Data returned: 94.7

Data request: Find the recorded inhibition belonging to `Cc1ccc(CN(CCO)Cc2coc3cccc(OCC4CCCCC4)c3c2=O)cc1` and report it.
Data returned: 94.3

Data request: For `CCCCN(CCO)Cc1coc2cccc(OCC3CCCCC3)c2c1=O` , what is its reported inhibition?
Data returned: 94

Data request: // lookup inhibition for `COc1ccc(CN(CCO)Cc2coc3cccc(OCC4CCCCC4)c3c2=O)cc1`
Data returned: 94.1

Data request: Quick one: inhibition for `O=c1c(CN(CCO)c2ccccc2)coc2cccc(OCC3CCCCC3)c12` ?
Data returned: 94.4

Data request: Request the reported inhibition associated with `CCCN(CCO)Cc1coc2cccc(OCC3CCCCC3)c2c1=O`
Data returned: 93.7

Data request: Recorded inhibition for `CN(CCO)Cc1coc2cccc(OCC3CCCCC3)c2c1=O` , please?
Data returned: 56
